molecular target: CYP3A4 (Homo sapiens, UniProt P08684); experiment: in vitro
Sequence (P08684 whole entry): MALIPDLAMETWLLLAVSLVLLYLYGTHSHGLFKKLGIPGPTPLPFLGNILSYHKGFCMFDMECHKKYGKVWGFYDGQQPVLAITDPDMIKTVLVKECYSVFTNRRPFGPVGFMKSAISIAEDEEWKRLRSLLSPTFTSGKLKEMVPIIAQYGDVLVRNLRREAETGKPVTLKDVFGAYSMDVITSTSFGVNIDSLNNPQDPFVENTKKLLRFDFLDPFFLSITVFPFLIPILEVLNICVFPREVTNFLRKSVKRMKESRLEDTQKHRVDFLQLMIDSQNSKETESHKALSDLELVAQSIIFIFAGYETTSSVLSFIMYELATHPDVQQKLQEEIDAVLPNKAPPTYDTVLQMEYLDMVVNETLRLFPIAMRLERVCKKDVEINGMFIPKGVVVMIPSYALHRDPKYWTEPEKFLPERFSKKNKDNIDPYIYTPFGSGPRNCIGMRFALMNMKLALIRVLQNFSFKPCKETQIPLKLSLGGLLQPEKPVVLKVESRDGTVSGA
measured_metric: inhibition at 10 µM (%)
# number only, unit % dropped from output

// solved cases for inhibition at 10 µM follow
>>> endpoint_result("Cc1cc(Oc2ccc(CCCC(=O)N(C)C)cc2Cl)c2c(N)c(C(N)=O)sc2n1")
40
>>> endpoint_result("NC(=O)c1sc2nccc(Oc3ccccc3)c2c1N")
9
>>> endpoint_result("CN(C)c1ccnc2sc(C(N)=O)c(N)c12")
0
>>> endpoint_result("NC(=O)c1sc2nccc(Oc3ccc(CCO)cc3)c2c1N")
0
>>> endpoint_result("Cc1cc(Oc2ccc(CCCC(=O)N(C)C)cc2F)c2c(N)c(C(N)=O)sc2n1")
20

Quote inhibition at 10 µM reported for `NC(=O)c1sc2nccc(OC3CCOCC3)c2c1N` please.
2

Check the records and state inhibition at 10 µM for `NC(=O)c1sc2nccc(N3CCCN(c4ccccc4)CC3)c2c1N`
49

###

molecular target: UniProt P09242; experiment: Induction of alkaline phosphatase activity in mouse ST-2 cells after 4 days by spectrophotometric method; format: cell-based
Measured EC200, listed per entry.
# value in µg/mL; strip the unit string

The following compounds have reported results that may help.
>>> endpoint_result("CC(C)Oc1ccnc2sc(C(N)=O)c(N)c12")
0.72
>>> endpoint_result("NC(=O)c1sc2nccc(Oc3ccccc3Cl)c2c1N")
0.008
>>> endpoint_result("CCc1ccc(Oc2ccnc3sc(C(N)=O)c(N)c23)cc1")
0.036
>>> endpoint_result("CN(C)c1ccnc2sc(C(N)=O)c(N)c12")
0.17
>>> endpoint_result("CN(C)C(=O)CCCc1ccc(Oc2ccnc3sc(C(N)=O)c(N)c23)cc1")
0.004
>>> endpoint_result("NC(=O)c1sc2nccc(Oc3ccccc3F)c2c1N")
0.022
>>> endpoint_result("Cc1cc(Oc2ccc(CCCC(=O)N(C)C)cc2Cl)c2c(N)c(C(N)=O)sc2n1")
0.0004
>>> endpoint_result("CCc1ccccc1Oc1ccnc2sc(C(N)=O)c(N)c12")
0.201
>>> endpoint_result("NC(=O)c1sc2nccc(OC3CCCCC3)c2c1N")
0.14
>>> endpoint_result("NC(=O)c1sc2nccc(Oc3ccc(Cl)cc3Cl)c2c1N")
0.014

// below: EC200 requested for another compound
Indicate the recorded EC200 value for this compound: C[C@H]1CCCC[C@@H]1Oc1ccnc2sc(C(N)=O)c(N)c12 (relative stereo)
0.045

###

assay: Metabolic stability in rat liver microsomes assessed as parent compound remaining after 30 mins; type: ADME, Microsome; conditions: read-out: Stability
measured_metric: remaining at 0.5 h
Please don't drop the unit; write it after the number.

// solved cases for remaining at 0.5 h follow
>>> endpoint_result("NC(=O)c1sc2nccc(Oc3ccc(CCO)cc3)c2c1N")
"75%"
>>> endpoint_result("Cc1cc(Oc2ccc(CCCC(=O)N(C)C)cc2Cl)c2c(N)c(C(N)=O)sc2n1")
"11%"
>>> endpoint_result("Cc1cc(Oc2ccc(CCCC(=O)N(C)C)cc2F)c2c(N)c(C(N)=O)sc2n1")
"12%"

In one line, give reported remaining at 0.5 h of the entry `NC(=O)c1sc2nccc(OC3CCCCC3)c2c1N` .
2%

Report remaining at 0.5 h, nothing else, for this compound: `NC(=O)c1sc2nccc(OC3CCOCC3)c2c1N`
85%

Fill in reported remaining at 0.5 h for this entry: `NC(=O)c1sc2nccc(Oc3ccccc3)c2c1N`
36%

Give the value of remaining at 0.5 h reported for the following: C[C@H]1CCCC[C@@H]1Oc1ccnc2sc(C(N)=O)c(N)c12 (relative stereo)
7%

###

assay: AUC (0 to 8 hrs) in F344 rat at 60 mg/kg, po; format: ADME, organism-based; design: time < 8 hr, dose 60 mg/kg, route oral; conditions: in vivo
Collected AUC(0-t) at 8 h values appear next to each entry.
Express your answer in ng·h/mL, writing the number without its unit.

>>> endpoint_result("NC(=O)c1sc2nccc(Oc3ccc(CCO)cc3)c2c1N")
3580

Note: attention shifts to another entry.
Give a short answer stating reported AUC(0-t) at 8 h for `Cc1cc(Oc2ccc(CCCC(=O)N(C)C)cc2F)c2c(N)c(C(N)=O)sc2n1` .
591

###

biological target: UniProt:P05177; assay: Inhibition of CYP1A2 (unknown origin) at 10 uM relative to control; format: ADME
Sequence (P05177 whole entry): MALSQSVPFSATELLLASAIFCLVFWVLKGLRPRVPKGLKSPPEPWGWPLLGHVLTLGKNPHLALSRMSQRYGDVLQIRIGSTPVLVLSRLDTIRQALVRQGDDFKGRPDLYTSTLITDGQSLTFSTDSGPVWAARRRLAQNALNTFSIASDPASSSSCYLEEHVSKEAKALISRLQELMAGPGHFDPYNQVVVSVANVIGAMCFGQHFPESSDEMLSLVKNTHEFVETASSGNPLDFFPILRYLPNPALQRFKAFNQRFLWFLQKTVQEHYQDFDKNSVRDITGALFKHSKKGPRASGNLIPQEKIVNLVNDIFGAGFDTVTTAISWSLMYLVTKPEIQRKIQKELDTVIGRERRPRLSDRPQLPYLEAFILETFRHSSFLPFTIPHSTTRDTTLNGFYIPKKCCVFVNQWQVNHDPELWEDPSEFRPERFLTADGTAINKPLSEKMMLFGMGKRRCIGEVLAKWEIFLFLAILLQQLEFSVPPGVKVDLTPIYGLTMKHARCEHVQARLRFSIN
We use 10% as the dividing line for inhibition at 10 µM: on or above the line is 1.0, below is 0.0.

Study these solved cases before continuing.
>>> category("NC(=O)c1sc2nccc(Oc3ccccc3)c2c1N")
1.0
>>> category("Cc1cc(Oc2ccc(CCCC(=O)N(C)C)cc2Cl)c2c(N)c(C(N)=O)sc2n1")
0.0
>>> category("NC(=O)c1sc2nccc(OC3CCOCC3)c2c1N")
1.0
>>> category("NC(=O)c1sc2nccc(N3CCCN(c4ccccc4)CC3)c2c1N")
1.0
>>> category("NC(=O)c1sc2nccc(Oc3ccc(CCO)cc3)c2c1N")
0.0

Shift focus to the following entry.
Please tell me: is the molecule `CN(C)c1ccnc2sc(C(N)=O)c(N)c12` at or over 10% in terms of inhibition at 10 µM?
1.0

###

target: CYP2C19 (Homo sapiens, UniProt P33261); assay: Inhibition of CYP2C19 (unknown origin) at 10 uM relative to control; format: ADME
Sequence (P33261 whole entry): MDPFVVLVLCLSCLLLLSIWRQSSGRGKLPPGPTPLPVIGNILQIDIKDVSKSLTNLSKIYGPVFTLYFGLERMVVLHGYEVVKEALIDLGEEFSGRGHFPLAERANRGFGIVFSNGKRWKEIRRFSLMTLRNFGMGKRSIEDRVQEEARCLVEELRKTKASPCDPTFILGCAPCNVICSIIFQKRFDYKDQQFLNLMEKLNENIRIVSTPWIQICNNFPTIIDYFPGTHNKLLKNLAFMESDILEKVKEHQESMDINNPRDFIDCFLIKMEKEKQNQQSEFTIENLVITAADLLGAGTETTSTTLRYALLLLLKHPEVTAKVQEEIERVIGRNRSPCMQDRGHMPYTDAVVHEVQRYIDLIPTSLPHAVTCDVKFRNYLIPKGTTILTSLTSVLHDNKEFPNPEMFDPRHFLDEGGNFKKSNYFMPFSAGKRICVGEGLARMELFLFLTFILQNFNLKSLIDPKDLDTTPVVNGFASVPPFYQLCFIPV
Tick yes (1) if inhibition at 10 µM is 10% or greater. Tick no (0) if inhibition at 10 µM is less than 10%.

>>> category("NC(=O)c1sc2nccc(N3CCCN(c4ccccc4)CC3)c2c1N")
"yes (1)"

# bool: inhibition at 10 µM of `NC(=O)c1sc2nccc(Oc3ccccc3)c2c1N` >= 10%
yes (1)

Hi, just wondering whether `CN(C)c1ccnc2sc(C(N)=O)c(N)c12` shows inhibition at 10 µM of 10% or higher.
no (0)

###

target: Alkaline phosphatase, tissue-nonspecific isozyme (Mus musculus) (UniProt P09242); experiment: Induction of alkaline phosphatase activity in mouse ST-2 cells after 4 days by spectrophotometric method; type: cell-based
EC200 overview

>>> endpoint_result("COc1ccnc2sc(C(N)=O)c(N)c12")
"> 1 µg/mL"
>>> endpoint_result("C[C@H]1COCC[C@@H]1Oc1ccnc2sc(C(N)=O)c(N)c12")
"0.27 µg/mL"
>>> endpoint_result("CN(C)C(=O)c1ccc(Oc2ccnc3sc(C(N)=O)c(N)c23)cc1")
"> 0.3 µg/mL"
>>> endpoint_result("COc1ccc(Oc2ccnc3sc(C(N)=O)c(N)c23)cc1")
"0.02 µg/mL"
>>> endpoint_result("NC(=O)c1sc2nccc(OC3CCOCC3)c2c1N")
"0.25 µg/mL"

Give EC200 for `CN(C)C(=O)CCc1ccc(Oc2ccnc3sc(C(N)=O)c(N)c23)cc1`
0.01 µg/mL

Please list EC200 recorded for the compound `NC(=O)c1sc2nccc(Oc3ccc(Cl)cc3)c2c1N`
0.021 µg/mL

###

Overview of recorded inhibition at 10 µM for various molecules
target: UniProtKB P33261; test: Inhibition of CYP2C19 (unknown origin) at 10 uM relative to control; type: ADME
Could you give me the number in %? Just the number is fine.

Recorded inhibition at 10 µM, per entry:
>>> endpoint_result("NC(=O)c1sc2nccc(OC3CCOCC3)c2c1N")
1
>>> endpoint_result("NC(=O)c1sc2nccc(Oc3ccc(CCO)cc3)c2c1N")
8
>>> endpoint_result("Cc1cc(Oc2ccc(CCCC(=O)N(C)C)cc2Cl)c2c(N)c(C(N)=O)sc2n1")
11

For the next question, use this molecule.
For the molecule `Cc1cc(Oc2ccc(CCCC(=O)N(C)C)cc2F)c2c(N)c(C(N)=O)sc2n1` , report inhibition at 10 µM.
10

###

target: UniProt P09242; assay: Induction of alkaline phosphatase activity in mouse ST-2 cells after 4 days by spectrophotometric method; type: cell-based
measured_metric: EC200 (µg/mL)
The answer is to be given in µg/mL; state only the numeric part.

For `COc1ccccc1Oc1ccnc2sc(C(N)=O)c(N)c12` , write its EC200.
0.114

Read the entry `Cc1cc(Oc2ccc(CCCC(=O)N(C)C)cc2F)c2c(N)c(C(N)=O)sc2n1` and write its reported EC200.
0.0005

Complete the entry with EC200 for `CCOc1ccnc2sc(C(N)=O)c(N)c12`
0.27

In one line, give reported EC200 of the entry `NC(=O)c1sc2nccc(Oc3ccccc3)c2c1N` .
0.046

Given the compound `COC(=O)c1ccc(Oc2ccnc3sc(C(N)=O)c(N)c23)cc1` , write its reported EC200.
0.09

###

Biological target: Alkaline phosphatase, tissue-nonspecific isozyme (Mus musculus) (UniProt P09242)
Sequence (whole entry): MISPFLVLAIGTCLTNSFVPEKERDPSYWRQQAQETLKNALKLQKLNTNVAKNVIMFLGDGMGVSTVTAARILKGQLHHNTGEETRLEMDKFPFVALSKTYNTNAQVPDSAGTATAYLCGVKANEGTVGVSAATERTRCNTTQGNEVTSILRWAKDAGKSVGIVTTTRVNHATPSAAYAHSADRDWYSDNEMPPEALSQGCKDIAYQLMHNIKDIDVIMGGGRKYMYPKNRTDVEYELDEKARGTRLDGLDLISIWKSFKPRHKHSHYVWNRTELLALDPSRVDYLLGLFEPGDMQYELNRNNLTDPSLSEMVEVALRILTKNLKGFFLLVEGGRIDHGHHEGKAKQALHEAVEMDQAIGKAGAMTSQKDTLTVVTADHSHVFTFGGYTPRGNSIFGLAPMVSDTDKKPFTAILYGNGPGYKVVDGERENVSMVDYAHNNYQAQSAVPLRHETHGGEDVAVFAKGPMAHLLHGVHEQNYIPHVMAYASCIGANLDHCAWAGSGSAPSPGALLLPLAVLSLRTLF
Experiment: Induction of alkaline phosphatase activity in mouse ST-2 cells after 4 days by spectrophotometric method
Format: cell-based
measured_metric: log10 of EC200 (log10 of the value in µg/mL)
Record value = log10 of EC200 given in µg/mL.

Consider the reported log10 of EC200 for these compounds:
>>> endpoint_result("CN(C)C(=O)COc1ccc(Oc2ccnc3sc(C(N)=O)c(N)c23)cc1")
-1.64
>>> endpoint_result("CN(C)CCc1ccc(Oc2ccnc3sc(C(N)=O)c(N)c23)cc1")
-1.24
>>> endpoint_result("COc1ccc(Oc2ccnc3sc(C(N)=O)c(N)c23)c(Cl)c1")
-2.10
>>> endpoint_result("NC(=O)c1sc2nccc(Oc3cccc(Cl)c3)c2c1N")
-0.83
>>> endpoint_result("NC(=O)c1sc2nccc(Oc3ccc(CCO)cc3)c2c1N")
-1.60
>>> endpoint_result("N#Cc1ccc(Oc2ccnc3sc(C(N)=O)c(N)c23)cc1")
-0.64

Dear colleague, please send me the reported log10 of EC200 for `Cc1cc(Oc2ccc(CCCC(=O)N(C)C)cc2)c2c(N)c(C(N)=O)sc2n1` when you can.
-2.96

Answer with reported log10 of EC200 of `C[C@H]1CC[C@H](Oc2ccnc3sc(C(N)=O)c(N)c23)CC1`
-1.43
